System: Aspergillus fumigatus
Assay: Antifungal activity against Aspergillus fumigatus NRRL6113 assessed as reduction in fungal viability incubated for 48 hrs by microplate reader analysis
Format: functional
MFC<=99.9 values by entry
Please give a number only; it is taken to be in µM.

| Smiles repr | MFC<=99.9 / µM |
| --- | --- |
| C[C@@H]1[C@H](O)[C@@H](C)/C=C/C=C/C=C/C=C/C=C/C=C/C=C/[C@H](O[C@@H]2O[C@H](C)[C@@H](O)[C@H](N)[C@@H]2O)C[C@@H]2O[C@](O)(C[C@@H](O)C[C@@H](O)[C@H](O)CC[C@@H](O)C[C@@H](O)CC(=O)O[C@H]1C)C[C@H](O)[C@H]2C(=O)O | 10 |

Lookup: Fill in: MFC<=99.9 of CC[C@H](C)C[C@H](C)C[C@H](C)C[C@@H]1NC(=O)[C@H](C(C)C)N(C)C(=O)[C@@H]([C@H](C)CC)OC(=O)[C@H](C(C)(C)O)N(C)C(=O)[C@H](CC(C)C)NC(=O)[C@H](C(C)C)N(C)C(=O)[C@H]([C@H](C)CC)NC(=O)[C@@H]2CCCN2C(=O)CN(C)C1=O is ___
Found: 5

###

Test system: Rhizopus arrhizus
Assay: Antifungal activity against Rhizopus oryzae FGSC 9543 assessed as reduction in fungal viability incubated for 48 hrs by microplate reader analysis
Format: functional
Numbered stars: 1 amine (or outer) side, 2 acyl side, 3 side chain; on linkers, the order of the positions; unused ones are H or OH. Square brackets hold non-standard residues; d marks the D form. Peptide text beside a SMILES is read from it. X1 = CC[C@@H](C)[C@@H](O[*:1])C(=O)[*:2]; NMeVal(β-OH) = CN[C@H](C(=O)O)C(C)(C)O; NMeF = CN[C@@H](Cc1ccccc1)C(=O)O; aIle = CC[C@@H](C)[C@H](N)C(=O)O; NMeV = CN[C@H](C(=O)O)C(C)C
Property name: MFC<=99.9

| Molecule | Property name | Val |
| --- | --- | --- |
| CC[C@H](C)C[C@H](C)C[C@H](C)C[C@@H]1NC(=O)[C@H](C(C)C)N(C)C(=O)[C@@H]([C@H](C)CC)OC(=O)[C@H](C(C)(C)O)N(C)C(=O)[C@H](CC(C)C)NC(=O)[C@H](C(C)C)N(C)C(=O)[C@H]([C@H](C)CC)NC(=O)[C@@H]2CCCN2C(=O)CN(C)C1=O | MFC<=99.9 | >10 µM |

# next molecule below
Lookup: Fill in: MFC<=99.9 of CC[C@@H](C)[C@@H]1NC(=O)[C@@H]2CCCN2C(=O)[C@H](Cc2ccccc2)N(C)C(=O)[C@H](Cc2ccccc2)NC(=O)[C@H](C(C)C)N(C)C(=O)[C@@H]([C@H](C)CC)OC(=O)[C@H](C(C)(C)O)N(C)C(=O)[C@H](CC(C)C)NC(=O)[C@H](C(C)C)N(C)C1=O [AUREOBASIDIN A] (cyclo(F[NMeF]P[aIle][NMeV]L[NMeVal(β-OH)][X1][NMeV])) is ___
Found: >10 µM

###

MFC values by entry
Tested on: Rhizopus arrhizus
Assay: Antifungal activity against Rhizopus oryzae FGSC 9543 assessed as reduction in fungal growth incubated for 48 hrs by microplate reader analysis
Format: functional
Please give a number only; it is taken to be in µM.

| Compound | System name | Property name | Uom | Val |
| --- | --- | --- | --- | --- |
| CCC(C)n1ncn(-c2ccc(N3CCN(c4ccc(OCC5COC(Cn6cncn6)(c6ccc(Cl)cc6Cl)O5)cc4)CC3)cc2)c1=O (stereo not given) [ITRACONAZOLE] | Rhizopus arrhizus | MFC | µM | 0.6 |

Lookup: Notebook: pull reported MFC for Rhizopus arrhizus, entry C[C@@H]1[C@H](O)[C@@H](C)/C=C/C=C/C=C/C=C/C=C/C=C/C=C/[C@H](O[C@@H]2O[C@H](C)[C@@H](O)[C@H](N)[C@@H]2O)C[C@@H]2O[C@](O)(C[C@@H](O)C[C@@H](O)[C@H](O)CC[C@@H](O)C[C@@H](O)CC(=O)O[C@H]1C)C[C@H](O)[C@H]2C(=O)O [AMPHOTERICIN B]
Found: 0.3
